For each record, write down the corresponding cell viability.
tested on: DLD1; test: cell viability (CellTiter-Glo) relative to plate median (fraction of plate median); higher = more viable cells; conditions: 5 µM; treatment time 24 h; reporter: 7TFP

See these solved cases before continuing.
1) COC1(C)CCC2OC2(C)CCC2C1CC2(C)C (stereo not drawn) : 1.1
2) NCCCC(=O)O [gamma-AMINOBUTYRIC ACID] : 1.02
3) NNC(=O)c1ccncc1 : 0.952
4) COC(=O)[C@@H]1[C@H]2C[C@H]3c4[nH]c5ccccc5c4CCN3C[C@@H]2CC[C@@H]1O : 0.964
5) CCCCc1oc2ccccc2c1C(=O)c1cc(I)c(OCCN(CC)CC)c(I)c1 : 1.02
6) C=C1C2CCC3(C)C(c4ccoc4)OC(=O)CC13OC1CC(OC(C)=O)C(C)(C)C(CC(=O)OC)C12C (stereo not drawn) [3beta-ACETOXYDEOXYANGOLENSIC ACID, METHYL ESTER] : 0.908
7) CC(=O)O[C@H]1CC[C@]2(C)[C@H]3CC[C@]4(C)C(=CC[C@@]5(C(=O)O)CCC(C)(C)C[C@H]54)[C@]3(C)CC[C@H]2C1(C)C [3-Acetylaleuritolic acid] : 1.01
8) N=C(N)NS(=O)(=O)c1ccc(N)cc1 : 0.943

Please give cell viability for each item listed below.
1. CN1CCc2c(c3ccccc3n2Cc2ccccc2)C1
2. Nc1ccc(S(=O)(=O)Nc2ccc(Cl)nn2)cc1
3. N[C@@H](Cc1ccc(O)c(O)c1)C(=O)O
4. C/C=C1\[C@H]2C=C(C)C[C@]1(N)c1ccc(=O)[nH]c1C2
5. OCCN1CCN(CCCN2c3ccccc3Sc3ccc(C(F)(F)F)cc32)CC1

1.01
1.06
1.07
0.965
0.902
